ASSAY_SYSTEM: CDK1/CyclinB (h) (Homo sapiens, UniProt P06493)
Sequence (P06493 whole entry): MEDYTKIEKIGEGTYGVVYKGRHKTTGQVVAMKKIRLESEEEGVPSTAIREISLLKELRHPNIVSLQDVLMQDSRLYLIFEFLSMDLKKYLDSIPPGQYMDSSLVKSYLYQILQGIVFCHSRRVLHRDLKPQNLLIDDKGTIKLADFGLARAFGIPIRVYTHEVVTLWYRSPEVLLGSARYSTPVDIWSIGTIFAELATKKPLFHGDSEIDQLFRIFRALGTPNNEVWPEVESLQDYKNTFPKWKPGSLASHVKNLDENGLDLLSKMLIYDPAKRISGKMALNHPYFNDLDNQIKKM
Sequence (P14635 whole entry partner): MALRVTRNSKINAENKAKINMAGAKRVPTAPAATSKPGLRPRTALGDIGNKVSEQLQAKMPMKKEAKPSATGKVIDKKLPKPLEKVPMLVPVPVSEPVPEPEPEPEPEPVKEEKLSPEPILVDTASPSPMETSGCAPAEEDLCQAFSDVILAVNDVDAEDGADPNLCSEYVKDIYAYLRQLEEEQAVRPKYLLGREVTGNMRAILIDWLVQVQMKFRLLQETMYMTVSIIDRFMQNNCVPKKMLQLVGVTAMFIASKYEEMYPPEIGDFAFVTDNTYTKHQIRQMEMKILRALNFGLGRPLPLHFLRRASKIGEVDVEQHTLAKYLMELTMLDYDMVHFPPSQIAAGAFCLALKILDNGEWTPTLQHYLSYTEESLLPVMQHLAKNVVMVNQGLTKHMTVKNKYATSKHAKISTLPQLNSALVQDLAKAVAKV
ASSAY_EXPLANATION: CDK1/CyclinB human kinase inhibition, Invitrogen's FRET assay (Z'lyte)
Format: biochemical
CONDITION_LABEL: read-out: CDK1 pIC50 (converted)
PROPERTY_LABEL: IC50

// solved cases for IC50 follow
SMILES_TEXT	IC50
O=C1NCCCOc2ccc(cc2)-c2ccnc(n2)Nc2ccc(N3CCOCC3)c(c2)CN2CCC1CC2	1.02 µM
CC(C)(C)O[C@@H]1C[C@H]2C(=O)NCc3cccc(c3)-c3ccnc(n3)Nc3ccccc3CN2C1	> 10 µM
COc1ccc2cc1CN(C)CCCNC(=O)C1CCN(CC1)Cc1cc(Br)cc(c1)Nc1nccc-2n1	> 10 µM
COc1cc2cc(c1OC)CNC(=O)[C@H](CO)NCc1cccc(c1)-c1ccnc(n1)N2	> 10 µM
O=C1CN2CCN(CC2)Cc2cc(ccc2N2CCOCC2)Nc2nccc(n2)-c2ccc(cc2)OCCN1	> 10 µM

Need IC50 of "COc1cc2cc(c1)Nc1nccc(n1)-c1ccc(OC)c(c1)CN(C)CCCNC(=O)CN1CCN(CC1)C2" , thanks.
> 10 µM

Need IC50 of "O=C1NCc2cccc(c2)-c2ccnc(n2)Nc2ccc(C(=O)N3CCOCC3)c(c2)CN2CCC[C@@H]12" , thanks.
> 10 µM

Need IC50 of "CN(C)C(=O)c1cc2cc(c1)Nc1nccc(n1)-c1cccc(c1)CNC(=O)[C@@H]1CCCN1C2" , thanks.
0.288 µM

Need IC50 of "COc1ccc2cc1CN(C)CCCNC(=O)C1CCN(CC1)Cc1cc(cc(N3CCOCC3)c1)Nc1nccc-2n1" , thanks.
> 10 µM

Need IC50 of "COc1ccc2cc1CN(C)CCCNC(=O)[C@H](CO)NCc1cc(Br)cc(c1)Nc1nccc-2n1" , thanks.
> 10 µM

Need IC50 of "O=C(NC1CCOCC1)c1ccc2cc1CN1CCC[C@H]1C(=O)NCc1cccc(c1)-c1ccnc(n1)N2" , thanks.
> 10 µM

Need IC50 of "CC(C)Nc1cc2cc(c1)Nc1nccc(n1)-c1ccc(cc1)CN(C)CCNC(=O)[C@@H]1CCCN1C2" , thanks.
2.82 µM

Need IC50 of "COCCNC(=O)c1ccc2cc1CN1CCC[C@H]1C(=O)NCc1cccc(c1)-c1ccnc(n1)N2" , thanks.
3.09 µM

Need IC50 of "COc1ccc2cc1CNCCCNC(=O)CN1CCN(CC1)Cc1cc(ccc1N1CCOCC1)Nc1nccc-2n1" , thanks.
> 10 µM
